Provenance of the data: patent US20160220557A1

# measured_target: hACC1 (Homo sapiens)
observation_type: IC50 (nM)

CO[C@H]1CCCC[C@@H](c2ccccc2)OC(=O)[C@@H](C)[C@@]2(O)O[C@H]([C@@H](C)[C@H](O)[C@H]2OC)[C@@H](C)/C=C/[C@H]1OC [Example 9, reference compound]
140
Cc1nc2ccc(C(=O)N3CCC4(CC3)CC(=O)c3c(cnn3C(C)C)C4)cc2[nH]1 [Example 1]
11
CC(C)n1ncc2c1C(=O)CC1(CCN(C(=O)c3ccc4[nH]ncc4c3)CC1)C2 [Example 5]
5

(1) CC(=O)N[C@@H](C)c1cc(-c2cnc(Oc3ccc(OCC4CC4)cc3)s2)no1 [Example 21]
(2) CC(C)n1ncc2c1C(=O)CC1(CCN(C(=O)c3ccc4[nH]nc(C#N)c4c3)CC1)C2 [Example 6]
(3) CCOc1cc(C(=O)N2CCC3(CC2)CC(=O)c2cc(-c4cncc(C(N)=O)c4)ccc2O3)cc(OCC)c1-c1cccc(C(=O)O)c1 [Example 14]
(4) CC(=O)N[C@@H](C)CCc1ccc(Oc2ccc(OC(C)C)cc2)cc1 [Example 23]
# sort list by recorded IC50, greatest to least Give your ranking as a list of the labels in the requested order.
4, 1, 3, 2

* * *

# measured_target: recombinant human ACC1 (rhACC1) (Homo sapiens, UniProt Q13085, DEL44-44)
# Construct: His6 (N)
# experimental_details: Transcreener ADP detection FP assay, recombinant human ACC1 inhibition
# condition_summary: recombinant human ACC1, 50 μM ATP; read-out: Transcreener Assay hACC1 IC50
observation_type: IC50 (nM)

Known IC50 results, listed for orientation:
CO[C@H]1CCCC[C@@H](c2ccccc2)OC(=O)[C@@H](C)[C@@]2(O)O[C@H]([C@@H](C)[C@H](O)[C@H]2OC)[C@@H](C)/C=C/[C@H]1OC [Example 9, reference compound]
20
CC(=O)NCC(C)c1ccc2nc(Oc3ccc(OCC4CC4)nc3)sc2c1 (centres unmarked)
2200
CC(=O)NC(C)c1ccc(-c2cnc(Oc3ccc(OCC4CC4)cc3)s2)cc1 (centres unmarked)
4050
O=C(O)CCc1ccc(-c2ccc(S(=O)(=O)N[C@H]3CC[C@H](C(=O)N4CCOC[C@@H]4c4ccccc4)CC3)cc2)cc1
41
CCCCC1=NC2(CCN(C(=O)c3c(NC(=O)NCC)sc4ccccc34)CC2)C(=O)N1
11000

(I) COc1ccc2ccc(C(=O)N3CCC4(CC3)CC(=O)c3c(cnn3C(C)C)C4)cc2c1
(II) CC(C)n1ncc2c1C(=O)CC1(CCN(C(=O)c3ccc4ccc(NC(C)(C)C)nc4c3)CC1)C2
Hi, I'm comparing two records. Which one has the lower IC50, I or II ? Lab log: write the label of the selected item as the result.
I
(I: 4 nM, II: 17 nM)

* * *

# measured_target: recombinant human ACC2 (rhACC2) (Homo sapiens, UniProt O00763, V2141I)
# Sequence (O00763 whole entry V2141I): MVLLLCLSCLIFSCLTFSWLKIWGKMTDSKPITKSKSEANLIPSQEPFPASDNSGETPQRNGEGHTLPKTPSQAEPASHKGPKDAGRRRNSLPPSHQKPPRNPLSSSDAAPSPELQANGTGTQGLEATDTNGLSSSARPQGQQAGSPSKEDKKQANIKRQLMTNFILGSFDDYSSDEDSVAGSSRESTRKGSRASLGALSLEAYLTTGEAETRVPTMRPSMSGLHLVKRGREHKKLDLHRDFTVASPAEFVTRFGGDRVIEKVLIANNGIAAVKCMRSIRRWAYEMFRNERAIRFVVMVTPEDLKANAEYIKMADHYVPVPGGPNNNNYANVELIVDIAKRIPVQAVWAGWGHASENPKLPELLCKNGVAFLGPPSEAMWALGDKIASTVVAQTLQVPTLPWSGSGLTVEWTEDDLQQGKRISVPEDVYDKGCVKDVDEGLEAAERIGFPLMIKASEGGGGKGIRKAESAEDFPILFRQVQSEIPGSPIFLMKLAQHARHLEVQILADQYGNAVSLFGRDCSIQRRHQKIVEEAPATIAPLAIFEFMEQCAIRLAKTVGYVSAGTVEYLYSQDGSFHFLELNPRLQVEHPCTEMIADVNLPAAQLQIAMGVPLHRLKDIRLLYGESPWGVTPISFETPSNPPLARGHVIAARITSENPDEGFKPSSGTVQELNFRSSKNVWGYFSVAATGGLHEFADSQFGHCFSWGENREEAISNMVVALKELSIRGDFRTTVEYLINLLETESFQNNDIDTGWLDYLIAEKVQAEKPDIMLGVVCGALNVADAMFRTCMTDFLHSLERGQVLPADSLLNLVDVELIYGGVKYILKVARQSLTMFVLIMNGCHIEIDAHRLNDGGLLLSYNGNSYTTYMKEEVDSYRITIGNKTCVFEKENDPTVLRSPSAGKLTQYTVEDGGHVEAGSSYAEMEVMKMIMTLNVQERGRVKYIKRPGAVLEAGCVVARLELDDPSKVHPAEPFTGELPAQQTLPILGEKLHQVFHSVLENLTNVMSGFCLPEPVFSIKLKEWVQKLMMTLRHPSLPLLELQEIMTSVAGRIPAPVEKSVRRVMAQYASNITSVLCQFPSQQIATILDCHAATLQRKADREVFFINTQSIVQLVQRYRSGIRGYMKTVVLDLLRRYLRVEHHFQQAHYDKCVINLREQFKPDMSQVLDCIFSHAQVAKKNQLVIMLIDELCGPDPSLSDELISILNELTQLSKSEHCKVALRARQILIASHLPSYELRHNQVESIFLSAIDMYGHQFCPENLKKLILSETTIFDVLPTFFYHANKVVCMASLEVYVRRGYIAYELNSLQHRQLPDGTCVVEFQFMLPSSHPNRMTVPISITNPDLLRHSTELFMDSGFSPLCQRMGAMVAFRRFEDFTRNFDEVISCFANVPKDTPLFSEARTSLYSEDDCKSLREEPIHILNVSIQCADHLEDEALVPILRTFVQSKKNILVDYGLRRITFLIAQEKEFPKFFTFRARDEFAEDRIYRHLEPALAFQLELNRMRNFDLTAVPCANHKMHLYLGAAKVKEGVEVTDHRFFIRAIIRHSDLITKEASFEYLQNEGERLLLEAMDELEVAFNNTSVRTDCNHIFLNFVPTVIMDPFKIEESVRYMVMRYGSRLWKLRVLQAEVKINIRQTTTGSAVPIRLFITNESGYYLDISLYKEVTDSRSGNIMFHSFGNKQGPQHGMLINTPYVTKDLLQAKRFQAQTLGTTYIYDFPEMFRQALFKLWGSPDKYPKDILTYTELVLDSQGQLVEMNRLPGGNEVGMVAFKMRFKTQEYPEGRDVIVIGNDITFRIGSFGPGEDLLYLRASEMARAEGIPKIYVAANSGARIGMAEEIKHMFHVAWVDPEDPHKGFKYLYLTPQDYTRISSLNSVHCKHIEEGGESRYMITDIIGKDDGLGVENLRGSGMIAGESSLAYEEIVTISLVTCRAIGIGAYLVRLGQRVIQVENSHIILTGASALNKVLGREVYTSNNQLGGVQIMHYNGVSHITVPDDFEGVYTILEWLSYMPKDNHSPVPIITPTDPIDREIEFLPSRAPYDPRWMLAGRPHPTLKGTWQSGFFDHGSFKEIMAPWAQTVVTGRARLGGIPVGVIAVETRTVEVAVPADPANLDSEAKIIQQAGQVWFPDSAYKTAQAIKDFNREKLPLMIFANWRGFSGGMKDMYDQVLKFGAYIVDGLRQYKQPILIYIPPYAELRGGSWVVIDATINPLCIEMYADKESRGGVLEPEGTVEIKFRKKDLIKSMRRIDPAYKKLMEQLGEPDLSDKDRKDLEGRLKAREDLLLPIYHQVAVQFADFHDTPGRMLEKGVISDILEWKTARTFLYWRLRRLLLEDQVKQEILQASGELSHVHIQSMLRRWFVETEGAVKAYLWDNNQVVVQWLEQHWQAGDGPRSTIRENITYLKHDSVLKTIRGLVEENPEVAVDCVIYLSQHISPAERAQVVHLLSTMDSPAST
# experimental_details: Transcreener ADP detection FP assay, recombinant human ACC2 inhibition
# condition_summary: recombinant human ACC2, 50 μM ATP; read-out: Transcreener Assay hACC2 IC50
pIC50: −log10 of the molar value.
observation_type: pIC50

Field: example entries. Status: answers known.
COc1cc(C(=O)N2CCC3(CC2)CC(=O)c2cc(-c4nnn[nH]4)ccc2O3)cc2c1ccn2C1CC1 [Example 10]
8.40
CC(=O)N[C@@H](C)C#Cc1ccc(Oc2ccc(OC(C)C)cc2)cc1 [Example 12]
7.54

(1) CCCCC1=NC2(CCN(C(=O)c3c(NC(=O)NCC)sc4ccccc34)CC2)C(=O)N1 [Example 20]
(2) O=C(O)CCc1ccc(-c2ccc(S(=O)(=O)N[C@H]3CC[C@H](C(=O)N4CCOC[C@@H]4c4ccccc4)CC3)cc2)cc1 [Example 24]
(3) CC(C)(O)[C@@H](NC(=O)[C@H]1CC[C@H](NS(=O)(=O)c2ccc(C(F)(F)F)cc2)CC1)c1ccccc1 [Example 16]
(4) CC(=O)N[C@@H](C)CCc1ccc(Oc2ccc(OC(C)C)cc2)cc1 [Example 23]
(5) CC(=O)N[C@@H](C)c1cc(-c2cnc(Oc3ccc(OCC4CC4)cc3)s2)no1 [Example 21]
// smallest pIC50 at index 0, largest at the end Would you mind listing the labels in the order requested?
1, 4, 3, 2, 5

(1) CC(C)n1ncc2c1C(=O)CC1(CCN(C(=O)c3ccc4[nH]ncc4c3)CC1)C2 [Example 5]
(2) CC(C)n1ncc2c1C(=O)CC1(CCN(C(=O)c3ccc4ccc(NC(C)(C)C)nc4c3)CC1)C2 [Example 4]
(3) COc1ccc2ccc(C(=O)N3CCC4(CC3)CC(=O)c3c(cnn3C(C)C)C4)cc2c1 [Example 2]
(4) CC(=O)NC(C)c1ccc(-c2cnc(Oc3ccc(OCC4CC4)cc3)s2)cc1 (stereo not shown) [Example 22]
(5) CCCOc1ccc(Oc2ccc(-c3ccc(C(C)NC(C)=O)cc3)cn2)cc1 (stereo not shown) [Example 13, reference compound]
Sort by pIC50, descending. # list labels per requested ordering
3, 2, 1, 5, 4
